- assay-info: Excipient selection based on active compound solubility screening
- Assay type: physicochemical
- protocol-conditions: filtrate of excipient solution in water, 37 °C, aqueous with cosolvent or surfactant or cyclodextrin, thermodynamic from solid, polyethylene glycol (Carbowax 3350) 50 mg/ml; 37° C.; read-out: COMPOUND A Solubility
- Protocol: Such excipients are useful in making osmotic sustained release tablets. […] The active compound solubility measured in this manner exceeded 150 mgA/ml (mgA is the milligrams of active compound). The excipients were screened by preparing a saturated solution (unless otherwise noted) of the candidate excipient in water at 37° C. for 2 hrs, and filtering the undissolved portion. […]
property-measured: solubility at 5 min

Recorded solubility at 5 min for "CN1N=C2CCN(C(=O)[C@@H](COCc3ccccc3)NC(=O)C(C)(C)N)C[C@@]2(Cc2ccccc2)C1=O.O=C(O)C(O)C(O)C(=O)O" , please?
> 150 mg/mL

====

- assay-info: Osmotic agent selection based on active compound solubility screening
- Format: physicochemical
- protocol-conditions: sorbitol solution in water, 250 mg/ml (below saturation), 37 °C, aqueous with cosolvent or surfactant or cyclodextrin, sorbitol solution 250 mg/ml (below saturation), read-out: COMPOUND A Solubility
property-measured: solubility at 5 min

What value of solubility at 5 min has been recorded for this entry: "CN1N=C2CCN(C(=O)[C@@H](COCc3ccccc3)NC(=O)C(C)(C)N)C[C@@]2(Cc2ccccc2)C1=O.O=C(O)C(O)C(O)C(=O)O"
> 150 mg/mL

====

- assay-info: Excipient selection based on active compound solubility screening
- Type: physicochemical
- protocol-conditions: filtrate of excipient solution in water, 37 °C, aqueous buffer, thermodynamic from solid, saturated citric acid solution, approx. 600 mg/ml; 37° C.; read-out: COMPOUND A Solubility
property-measured: solubility at 5 min

# query: solubility at 5 min of entry "CN1N=C2CCN(C(=O)[C@@H](COCc3ccccc3)NC(=O)C(C)(C)N)C[C@@]2(Cc2ccccc2)C1=O.O=C(O)C(O)C(O)C(=O)O"
> 150 mg/mL

====

- assay-info: Excipient selection based on active compound solubility screening
- Format: physicochemical
- protocol-conditions: filtrate of excipient solution in water, 37 °C, aqueous buffer, thermodynamic from solid, saturated sodium bitartrate solution, approx. 110 mg/ml; 37° C.; read-out: COMPOUND A Solubility
property-measured: solubility at 5 min

Given the compound CN1N=C2CCN(C(=O)[C@@H](COCc3ccccc3)NC(=O)C(C)(C)N)C[C@@]2(Cc2ccccc2)C1=O.O=C(O)C(O)C(O)C(=O)O [Compound A] , what is its reported solubility at 5 min?
> 150 mg/mL

====

- assay-info: Excipient selection based on active compound solubility screening
- Assay type: physicochemical
- protocol-conditions: filtrate of excipient solution in water, 37 °C, saline or isotonic, thermodynamic from solid, saturated sodium chloride solution, approx. 360 mg/ml; 37° C.; read-out: COMPOUND A Solubility
- Protocol: Such excipients are useful in making osmotic sustained release tablets. […] The active compound solubility measured in this manner exceeded 150 mgA/ml (mgA is the milligrams of active compound). The excipients were screened by preparing a saturated solution (unless otherwise noted) of the candidate excipient in water at 37° C. for 2 hrs, and filtering the undissolved portion. […]
property-measured: solubility at 5 min

Look up solubility at 5 min: CN1N=C2CCN(C(=O)[C@@H](COCc3ccccc3)NC(=O)C(C)(C)N)C[C@@]2(Cc2ccccc2)C1=O.O=C(O)C(O)C(O)C(=O)O [Compound A]
< 50 mg/mL

====

- assay-info: Excipient selection based on active compound solubility screening
- Assay type: physicochemical
- protocol-conditions: filtrate of excipient solution in water, 37 °C, water, thermodynamic from solid, calcium stearate < 1 mg/ml, prepared at 2 mg/mL; 37° C.; read-out: COMPOUND A Solubility
property-measured: solubility at 5 min

So what's the measured solubility at 5 min for this one? "CN1N=C2CCN(C(=O)[C@@H](COCc3ccccc3)NC(=O)C(C)(C)N)C[C@@]2(Cc2ccccc2)C1=O.O=C(O)C(O)C(O)C(=O)O"
> 150 mg/mL

====

- assay-info: Excipient selection based on active compound solubility screening
- Type: physicochemical
- protocol-conditions: filtrate of excipient solution in water, 37 °C, water, thermodynamic from solid, microcrystalline cellulose (Avicel PH102) < 1 mg/ml, prepared at 80 mg/ml; 37° C.; read-out: COMPOUND A Solubility
property-measured: solubility at 5 min

Return reported solubility at 5 min; argument: CN1N=C2CCN(C(=O)[C@@H](COCc3ccccc3)NC(=O)C(C)(C)N)C[C@@]2(Cc2ccccc2)C1=O.O=C(O)C(O)C(O)C(=O)O [Compound A]
> 150 mg/mL

====

- assay-info: Excipient selection based on active compound solubility screening
- Format: physicochemical
- protocol-conditions: filtrate of excipient solution in water, 37 °C, aqueous buffer, thermodynamic from solid, saturated L-arginine solution, approx. 150 mg/ml; 37° C.; read-out: COMPOUND A Solubility
property-measured: solubility at 5 min

For "CN1N=C2CCN(C(=O)[C@@H](COCc3ccccc3)NC(=O)C(C)(C)N)C[C@@]2(Cc2ccccc2)C1=O.O=C(O)C(O)C(O)C(=O)O" , what is its reported solubility at 5 min?
< 50 mg/mL

====

- assay-info: Excipient selection based on active compound solubility screening
- Format: physicochemical
- protocol-conditions: filtrate of excipient solution in water, 37 °C, thermodynamic from solid, visual screening, 37° C.; read-out: active compound solubility measured in this manner
property-measured: solubility at 5 min

Give the measured solubility at 5 min of "CN1N=C2CCN(C(=O)[C@@H](COCc3ccccc3)NC(=O)C(C)(C)N)C[C@@]2(Cc2ccccc2)C1=O.O=C(O)C(O)C(O)C(=O)O" .
> 150 mg/mL

====

- assay-info: Excipient selection based on active compound solubility screening
- Type: physicochemical
- protocol-conditions: filtrate of excipient solution in water, 37 °C, aqueous buffer, thermodynamic from solid, saturated L-aspartic acid solution, approx. 7 mg/ml; 37° C.; read-out: COMPOUND A Solubility
property-measured: solubility at 5 min

Requested read-out: solubility at 5 min. Entry: "CN1N=C2CCN(C(=O)[C@@H](COCc3ccccc3)NC(=O)C(C)(C)N)C[C@@]2(Cc2ccccc2)C1=O.O=C(O)C(O)C(O)C(=O)O"
> 150 mg/mL

====

- assay-info: Excipient selection based on active compound solubility screening
- Assay type: physicochemical
- protocol-conditions: filtrate of excipient solution in water, 37 °C, aqueous buffer, thermodynamic from solid, saturated fumaric acid solution, approx. 10 mg/ml; 37° C.; read-out: COMPOUND A Solubility
property-measured: solubility at 5 min

solubility at 5 min lookup needed for "CN1N=C2CCN(C(=O)[C@@H](COCc3ccccc3)NC(=O)C(C)(C)N)C[C@@]2(Cc2ccccc2)C1=O.O=C(O)C(O)C(O)C(=O)O" , thanks.
> 150 mg/mL

====

- assay-info: Excipient selection based on active compound solubility screening
- Format: physicochemical
- protocol-conditions: filtrate of excipient solution in water, 37 °C, aqueous buffer, thermodynamic from solid, saturated sodium citrate solution, approx. 520 mg/ml; 37° C.; read-out: COMPOUND A Solubility
- Experimental: Such excipients are useful in making osmotic sustained release tablets. […] The active compound solubility measured in this manner exceeded 150 mgA/ml (mgA is the milligrams of active compound). The excipients were screened by preparing a saturated solution (unless otherwise noted) of the candidate excipient in water at 37° C. for 2 hrs, and filtering the undissolved portion. […]
property-measured: solubility at 5 min

Entry under review: "CN1N=C2CCN(C(=O)[C@@H](COCc3ccccc3)NC(=O)C(C)(C)N)C[C@@]2(Cc2ccccc2)C1=O.O=C(O)C(O)C(O)C(=O)O" . Reported solubility at 5 min?
< 50 mg/mL

====

- assay-info: Excipient selection based on active compound solubility screening
- Type: physicochemical
- protocol-conditions: filtrate of excipient solution in water, 37 °C, aqueous buffer, thermodynamic from solid, L-lysine solution 50 mg/ml (below saturation); 37° C.; read-out: COMPOUND A Solubility
property-measured: solubility at 5 min

What value of solubility at 5 min has been reported for the following compound? "CN1N=C2CCN(C(=O)[C@@H](COCc3ccccc3)NC(=O)C(C)(C)N)C[C@@]2(Cc2ccccc2)C1=O.O=C(O)C(O)C(O)C(=O)O"
< 50 mg/mL

====

- assay-info: Excipient selection based on active compound solubility screening
- Format: physicochemical
- protocol-conditions: filtrate of excipient solution in water, 37 °C, saline or isotonic, thermodynamic from solid, saturated potassium chloride solution, approx. 360 mg/ml; 37° C.; read-out: COMPOUND A Solubility
property-measured: solubility at 5 min

solubility at 5 min for CN1N=C2CCN(C(=O)[C@@H](COCc3ccccc3)NC(=O)C(C)(C)N)C[C@@]2(Cc2ccccc2)C1=O.O=C(O)C(O)C(O)C(=O)O [Compound A] ?
< 50 mg/mL

====

- assay-info: Excipient selection based on active compound solubility screening
- Format: physicochemical
- protocol-conditions: filtrate of excipient solution in water, 37 °C, aqueous buffer, thermodynamic from solid, saturated sodium phosphate monobasic solution, approx. 1000 mg/ml; 37° C.; read-out: COMPOUND A Solubility
property-measured: solubility at 5 min

Entry CN1N=C2CCN(C(=O)[C@@H](COCc3ccccc3)NC(=O)C(C)(C)N)C[C@@]2(Cc2ccccc2)C1=O.O=C(O)C(O)C(O)C(=O)O [Compound A] : reported solubility at 5 min = ?
< 50 mg/mL
